Reference for the values: patent US8614324B2

Parameter: MOR agonist activity, [35S]GTPγS binding to Gαo. Scope: all listed entries.
ASSAYED TARGET: mu opiate receptor (MOR) (Rattus norvegicus)
Construct: from tissue; host or cells: striatal membrane preparation (rat striatum)
Sequence (P33535 whole entry): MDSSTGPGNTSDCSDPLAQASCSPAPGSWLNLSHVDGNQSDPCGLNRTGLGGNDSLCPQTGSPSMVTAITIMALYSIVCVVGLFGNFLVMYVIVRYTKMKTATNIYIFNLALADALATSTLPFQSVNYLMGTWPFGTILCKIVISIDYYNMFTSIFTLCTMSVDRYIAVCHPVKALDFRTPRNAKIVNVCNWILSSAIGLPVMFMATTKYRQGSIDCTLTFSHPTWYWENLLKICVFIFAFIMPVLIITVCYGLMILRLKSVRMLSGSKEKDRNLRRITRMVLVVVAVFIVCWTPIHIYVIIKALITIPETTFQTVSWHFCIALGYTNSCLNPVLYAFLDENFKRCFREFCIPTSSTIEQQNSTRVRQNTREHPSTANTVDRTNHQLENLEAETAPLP
TEST DETAILS: MOR agonist activity, [35S]GTPγS binding assay using striatal membranes
Type: biochemical
Design: reference not given here
CONDITION INFO: 0.1 μM compound, striatal membranes
ATTRIBUTE MEASURED: MOR agonist activity, [35S]GTPγS binding to Gαo (%)

COMPOUND: Cc1ccc(S(=O)(=O)N2CCOC23CCN(CC2CC2)CC3)cc1 [Compound C0134M]
ASSAYED TARGET: mu opiate receptor (MOR) (Rattus norvegicus)
UNIT TAG: %
READOUT NUMBER: 158.5
//
COMPOUND: C=CCN1CCC2(CC1)OCCN2S(=O)(=O)c1ccc(OC)cc1 [Compound C0091M]
ASSAYED TARGET: mu opiate receptor (MOR) (Rattus norvegicus)
UNIT TAG: %
READOUT NUMBER: 207.9
//
COMPOUND: CS(=O)(=O)c1ccc(S(=O)(=O)N2CCOC23CCN(CC2CC2)CC3)cc1 [Compound C0126M]
ASSAYED TARGET: mu opiate receptor (MOR) (Rattus norvegicus)
UNIT TAG: %
READOUT NUMBER: 181.8
//
COMPOUND: COc1ccc(S(=O)(=O)N2CCOC23CCN(C(=O)OC(C)(C)C)CC3)cc1
ASSAYED TARGET: mu opiate receptor (MOR) (Rattus norvegicus)
UNIT TAG: %
READOUT NUMBER: 175.4
//
COMPOUND: COc1ccc(S(=O)(=O)N2CCOC23CCN(C(C)C)CC3)cc1 [Compound C0133M]
ASSAYED TARGET: mu opiate receptor (MOR) (Rattus norvegicus)
UNIT TAG: %
READOUT NUMBER: 139.4
//
COMPOUND: CC(=O)c1ccc(S(=O)(=O)N2CC(CN(C)C)OC23CCN(CC2CC2)CC3)cc1 (centres unmarked) [Compound C0128M]
ASSAYED TARGET: mu opiate receptor (MOR) (Rattus norvegicus)
UNIT TAG: %
READOUT NUMBER: 197.8
//
COMPOUND: CC(=O)c1ccc(S(=O)(=O)N2CCC3(CC2)OCCN3S(C)(=O)=O)cc1
ASSAYED TARGET: mu opiate receptor (MOR) (Rattus norvegicus)
UNIT TAG: %
READOUT NUMBER: 98.6
//
COMPOUND: C[C@@H](NC(=O)[C@@H](N)Cc1ccc(O)cc1)C(=O)NCC(=O)N(C)[C@@H](Cc1ccccc1)C(=O)NCCO [DAMGO, reference compound]
ASSAYED TARGET: mu opiate receptor (MOR) (Rattus norvegicus)
UNIT TAG: %
READOUT NUMBER: 168.5
//
COMPOUND: CC(=O)c1ccc(S(=O)(=O)N2CCC3(CC2)NC(=O)CO3)cc1 [Compound C0087M]
ASSAYED TARGET: mu opiate receptor (MOR) (Rattus norvegicus)
UNIT TAG: %
READOUT NUMBER: 262.8
//
COMPOUND: C=CCN1CCC2(CC1)OCCN2S(=O)(=O)c1ccc(C(C)=O)cc1 [Compound C0096M]
ASSAYED TARGET: mu opiate receptor (MOR) (Rattus norvegicus)
UNIT TAG: %
READOUT NUMBER: 186.4
//
COMPOUND: CCOC(=O)CN1CCC2(CC1)OCCN2S(=O)(=O)c1ccc(C(C)=O)cc1 [Compound C0099M]
ASSAYED TARGET: mu opiate receptor (MOR) (Rattus norvegicus)
UNIT TAG: %
READOUT NUMBER: 157.2
//
COMPOUND: CN1CCC2(CC1)NCC(=O)N2Cc1ccccc1 [Compound C0105M]
ASSAYED TARGET: mu opiate receptor (MOR) (Rattus norvegicus)
UNIT TAG: %
READOUT NUMBER: 198.1
//
COMPOUND: CS(=O)(=O)c1ccc(S(=O)(=O)N2CCOC23CCNCC3)cc1 [Compound C0116M]
ASSAYED TARGET: mu opiate receptor (MOR) (Rattus norvegicus)
UNIT TAG: %
READOUT NUMBER: 258.4
//
COMPOUND: CN1CCC2(CC1)OCCN2S(=O)(=O)c1ccc(S(C)(=O)=O)cc1 [Compound C0106M]
ASSAYED TARGET: mu opiate receptor (MOR) (Rattus norvegicus)
UNIT TAG: %
READOUT NUMBER: 171.8
//
COMPOUND: COc1ccc(S(=O)(=O)N2CCC3(CC2)NCCO3)cc1
ASSAYED TARGET: mu opiate receptor (MOR) (Rattus norvegicus)
UNIT TAG: %
READOUT NUMBER: 207.2
//
COMPOUND: O=C1CN(Cc2ccccc2)C2(CCNCC2)N1 [Compound C0115M]
ASSAYED TARGET: mu opiate receptor (MOR) (Rattus norvegicus)
UNIT TAG: %
READOUT NUMBER: 177.2
//
COMPOUND: O=[N+]([O-])c1ccc(S(=O)(=O)N2CCC3(CC2)NCCCO3)cc1
ASSAYED TARGET: mu opiate receptor (MOR) (Rattus norvegicus)
UNIT TAG: %
READOUT NUMBER: 149.2
//
COMPOUND: CN1CCC2(CC1)NC(=O)CN2Cc1ccccc1 [Compound C0104M]
ASSAYED TARGET: mu opiate receptor (MOR) (Rattus norvegicus)
UNIT TAG: %
READOUT NUMBER: 188.2
//
COMPOUND: COc1ccc(S(=O)(=O)N2CCOC23CCN(CC2CC2)CC3)cc1 [Compound C0090M]
ASSAYED TARGET: mu opiate receptor (MOR) (Rattus norvegicus)
UNIT TAG: %
READOUT NUMBER: 237.0
//
COMPOUND: CC(=O)c1ccc(S(=O)(=O)N2C(Cc3c[nH]cn3)C(=O)NC23CCNCC3)cc1 (centres unmarked) [Compound C0119M]
ASSAYED TARGET: mu opiate receptor (MOR) (Rattus norvegicus)
UNIT TAG: %
READOUT NUMBER: 105.7
//
COMPOUND: O=[N+]([O-])c1ccc(S(=O)(=O)N2CCC3(CC2)NCCO3)cc1
ASSAYED TARGET: mu opiate receptor (MOR) (Rattus norvegicus)
UNIT TAG: %
READOUT NUMBER: 145.8
//
COMPOUND: COc1ccc(S(=O)(=O)N2CCC3(CC2)NCCC(=O)N3)cc1 [Compound C0142M]
ASSAYED TARGET: mu opiate receptor (MOR) (Rattus norvegicus)
UNIT TAG: %
READOUT NUMBER: 143.7
//
COMPOUND: O=C1CN(Cc2ccccc2)C2(CCN(CC3CC3)CC2)N1 [Compound C0125M]
ASSAYED TARGET: mu opiate receptor (MOR) (Rattus norvegicus)
UNIT TAG: %
READOUT NUMBER: 168.6
//
COMPOUND: O=C1CNC2(CCNCC2)N1Cc1ccccc1 [Compound C0114M]
ASSAYED TARGET: mu opiate receptor (MOR) (Rattus norvegicus)
UNIT TAG: %
READOUT NUMBER: 114.0
//
COMPOUND: COc1ccc(S(=O)(=O)N2CCSC23CCNCC3)cc1
ASSAYED TARGET: mu opiate receptor (MOR) (Rattus norvegicus)
UNIT TAG: %
READOUT NUMBER: 156.2
//
COMPOUND: COc1ccc(S(=O)(=O)N2CCOC23CCN(C)CC3)cc1 [Compound C0088M]
ASSAYED TARGET: mu opiate receptor (MOR) (Rattus norvegicus)
UNIT TAG: %
READOUT NUMBER: 276.3
//
COMPOUND: CCc1ccc(S(=O)(=O)N2CCOC23CCN(CC2CC2)CC3)cc1 [Compound C0135M]
ASSAYED TARGET: mu opiate receptor (MOR) (Rattus norvegicus)
UNIT TAG: %
READOUT NUMBER: 161.3
//
COMPOUND: O=C1CN(Cc2ccccc2)C2(CCN(C3CCCCC3)CC2)N1 [C0137M(P7)]
ASSAYED TARGET: mu opiate receptor (MOR) (Rattus norvegicus)
UNIT TAG: %
READOUT NUMBER: 180.8
//
COMPOUND: CCCCN1CCC2(CC1)OCCN2S(=O)(=O)c1ccc(OC)cc1 [Compound C0102M]
ASSAYED TARGET: mu opiate receptor (MOR) (Rattus norvegicus)
UNIT TAG: %
READOUT NUMBER: 131.8
//
COMPOUND: O=[N+]([O-])c1ccc(S(=O)(=O)N2CCC3(CC2)NCCS3)cc1
ASSAYED TARGET: mu opiate receptor (MOR) (Rattus norvegicus)
UNIT TAG: %
READOUT NUMBER: 173.7
//
COMPOUND: CC(=O)c1ccc(S(=O)(=O)N2CC(CN(C)C)OC23CCN(C)CC3)cc1 (centres unmarked) [Compound C0108M]
ASSAYED TARGET: mu opiate receptor (MOR) (Rattus norvegicus)
UNIT TAG: %
READOUT NUMBER: 205.6
//
COMPOUND: CC(=O)c1ccc(S(=O)(=O)N2CCOC23CCN(CC(=O)O)CC3)cc1 [Compound C0100M]
ASSAYED TARGET: mu opiate receptor (MOR) (Rattus norvegicus)
UNIT TAG: %
READOUT NUMBER: 173.6
//
COMPOUND: CCN1CCC2(CC1)OCCN2S(=O)(=O)c1ccc(OC)cc1 [Compound C0089M]
ASSAYED TARGET: mu opiate receptor (MOR) (Rattus norvegicus)
UNIT TAG: %
READOUT NUMBER: 234.5
//
COMPOUND: CC(=O)c1ccc(S(=O)(=O)N2CC(=O)NC23CCNCC3)cc1 [Compound C0086M]
ASSAYED TARGET: mu opiate receptor (MOR) (Rattus norvegicus)
UNIT TAG: %
READOUT NUMBER: 206.8
//
COMPOUND: CCCCN1CCC2(CC1)OCCN2S(=O)(=O)c1ccc(C(C)=O)cc1 [Compound C0101M]
ASSAYED TARGET: mu opiate receptor (MOR) (Rattus norvegicus)
UNIT TAG: %
READOUT NUMBER: 138.2
